Tested on: Staphylococcus aureus
protocol_summary: Antibacterial activity against Staphylococcus aureus ATCC 25923 by MTT assay
Format: functional
Entries annotated with measured MIC50

given_smiles | test_target | MIC50
Cc1ccccc1C(=O)OCCOC1=C(c2ccccc2)C(=O)OC1 | Staphylococcus aureus | > 100 µg/mL
O=C1OCC(OCCOC(=O)c2ccc(O)cc2O)=C1c1ccccc1 | Staphylococcus aureus | 15.3 µg/mL

// below: MIC50 requested for another compound
Per the records, this compound ( `O=C(Cc1cccc(Cl)c1)OCCOC1=C(c2ccccc2)C(=O)OC1` ) has MIC50 equal to > 100 µg/mL
